tested on: primary human T-cells; test: Proliferation assay after 5 days (CellTiter-Glo, CD3 stimulation; PBS counter screen); assay type: cell-based; conditions: Homo sapiens, T-cell, 120 h, CD3 stimulation, 5 days; normalized to reference compound A1 as stimulator control = 100%, DMSO neutral control; read-out: Emax proliferation (% activation)
quantity: Emax (%)
Your answer should be a plain number; it is taken to be in %.

// below: answered compounds
> print(dat)
                                   compound  quantity  result.value
1  CC(C)(CO)n1nnc(-c2cc3c(cc2F)S(=O)(=O)C[C@H](N)C(=O)N3Cc2ccc(Cl)cc2)n1      Emax           129
2  COC(F)(c1nc(-c2cc3c(cc2F)S(=O)(=O)C[C@H](N)C(=O)N3Cc2ccc(F)cc2)no1)C(F)(F)F (stereo partly shown)      Emax           157
3  CS(=O)(=O)CCc1nnc(-c2cc3c(cc2F)S(=O)(=O)C[C@H](N)C(=O)N3Cc2ccc(Cl)cc2)o1      Emax            67

--- query ---
Query block: Identify measured Emax associated with NC(CNc1nc(-c2cc3c(cc2F)S(=O)(=O)C[C@H](N)C(=O)N3Cc2ccc(Cl)cc2)no1)C(F)(F)F (stereo partly shown)
Result block: 57
